# Test system: primary human chondrocyte pellet cultures
# ASSAY_REMARKS: Chondrogenesis activity assay in primary human chondrocyte pellet cultures (proteoglycan (aggrecan) induction, Blyscan assay)
# Format: cell-based
# TEST_SETTINGS: Homo sapiens, Chondrocyte; maximum percent proteoglycan (aggrecan) induction relative to the internal reference compound at 10 μM
Here, each record is paired with measured Emax data.

COMPOUND | Emax
Cc1nccc2c1[nH]c1c(-c3cccc(C(O)c4ccccn4)c3)cc(Cl)cc12 (stereo not drawn) [Example 258] | 40 to 100%
CCn1c2c(-c3ccnn3C)cc(Cl)cc2c2ccnc(C)c21 [Example 19] | 40 to 100%
Cc1nccc2c1[nH]c1c(-c3ccc4c(c3)CC(C)(C)O4)cc(Cl)cc12 [Example 236] | > 200%
CCn1c2c(-c3cnn(C)c3)cc(Br)cc2c2cc(C)nc(C)c21 [Example 21] | > 200%
Cc1nccc2c1[nH]c1c(-c3cnccc3Cl)cc(Cl)cc12 [Example 97] | > 200%
COc1nc(Cl)ccc1-c1cc(Cl)cc2c1[nH]c1c(C)nccc12 [Example 122] | 100 to 200%
COc1ccc(-c2cc(Br)cc3c2[nH]c2c(C)nc(C)cc23)cc1 [Example 217] | > 200%
CCn1c2c(-c3cnn(Cc4cccnc4)c3)cc(Br)cc2c2ccnc(C)c21 [Example 5] | > 200%
CCn1c2c(-c3ccc(OCC4(C)COC4)cc3)cc(Cl)cc2c2ccnc(C)c21 [Example 256] | > 200%

The reported measurements were obtained from patent US12275733B2.
